Below are IC50 values recorded for CDK2 (UniProt P24941).

IC50 lookup needed for CC(C)n1cnc2c(NCc3ccc(C4C=CC=CC4=S)cc3)nc(N(CCO)CCO)nc21 (stereo unspecified) , thanks.
0.6 µM

Next: COC(=O)c1ccc(CNc2nc(Cl)nc3[nH]cnc23)cc1
> 5 µM

----------
# MEASUREMENT TARGET: CDK2 (UniProt P24941)
IC50 by entry:

COc1ccc(CNc2nc(NCC(CO)CCO)nc3c2ncn3C(C)C)cc1 (centres undefined) :: > 5 µM
CC(C)n1cnc2c(NCCCc3ccccc3)nc(N(CCO)CCO)nc21 :: 5 µM
CC(C)Cn1cnc2c(NCc3cccnc3)nc(Cl)nc21 :: > 5 µM

Below: the item to evaluate.
IC50 lookup needed for CC(C)n1cnc2c(NCc3ccc(-c4ccccc4)cc3)nc(N(C)c3ccco3)nc21 , thanks.
> 5 µM
